assay: Non-Spec Binding; format: in vitro ADME
reported property: Non-Spec Binding (%)

Examples with answers:
[
  {
    "structure smiles": "CCCc1nn(C)c2c(=O)[nH]c(-c3cc(S(=O)(=O)N4CCN(CCN5CCOCC5)CC4)ccc3OCC)nc12",
    "reported property": "Non-Spec Binding (%)",
    "observed": 68.4
  },
  {
    "structure smiles": "CCCc1nc(C)c2c(=O)[nH]c(-c3cc(S(=O)(=O)N4CCN(CCN5CCOCC5)CC4)ccc3OCC)nn12",
    "reported property": "Non-Spec Binding (%)",
    "observed": 8.78
  },
  {
    "structure smiles": "CCCc1nc(C)c2c(=O)[nH]c(-c3cc(S(=O)(=O)N(CCOCC)CCOCC)ccc3OCC)nn12",
    "reported property": "Non-Spec Binding (%)",
    "observed": 89.9
  },
  {
    "structure smiles": "CCCc1nc(C)c2c(=O)[nH]c(-c3cc(S(=O)(=O)N(C)CC(=O)O)ccc3OCC)nn12",
    "reported property": "Non-Spec Binding (%)",
    "observed": 0.8
  }
]

I: CCCc1nc(C)c2c(=O)[nH]c(-c3cc(S(=O)(=O)N(C)C[C@H](COC)OC)ccc3OCC)nn12
II: CCCc1nc(C)c2c(=O)[nH]c(-c3cc(S(=O)(=O)N4CCN(CC(=O)N(C)C)CC4)ccc3OCC)nn12
Ask | Compare the recorded Non-Spec Binding (%) of I and II ; state which is larger. Reply briefly: the label of your chosen item.
Reply | I

P: CCCc1nc(C)c2c(=O)[nH]c(-c3cc(S(=O)(=O)N(CC)CCOC)ccc3OCC)nn12
Q: CCCc1nc(C)c2c(=O)[nH]c(-c3cc(S(=O)(=O)N4CCN(CC(=O)NC(C)C)CC4)ccc3OCC)nn12
Ask | Please indicate which item has the smaller measured Non-Spec Binding (%): P versus Q Reply briefly: the label of your chosen item.
Reply | Q

---

assay: Chronic Cytoxicity (mouse 3T3); assay type: cell-based; conditions: 3T3 cells
Reported values of LC50 (50% lethal concentration) for individual entries

[
  {
    "molecule": "CCCc1nc(C)c2c(=O)[nH]c(-c3cc(S(=O)(=O)N(CC)CCOC)ccc3OCC)nn12 [Compound 9]",
    "LC50 (50% lethal concentration)": "> 100 µM"
  },
  {
    "molecule": "CCCc1nc(C)c2c(=O)[nH]c(-c3cc(S(=O)(=O)N(C)CCNC)ccc3OCC)nn12 [Compound 2]",
    "LC50 (50% lethal concentration)": "> 75 µM"
  },
  {
    "molecule": "CCCc1nc(C)c2c(=O)[nH]c(-c3cc(S(=O)(=O)N(C)C(C)(C)C)ccc3OCC)nn12 [Compound 3]",
    "LC50 (50% lethal concentration)": "> 100 µM"
  },
  {
    "molecule": "CCCc1nc(C)c2c(=O)[nH]c(-c3cc(S(=O)(=O)NCCO)ccc3OCC)nn12 [Compound 4]",
    "LC50 (50% lethal concentration)": "> 100 µM"
  }
]

Let's switch to this molecule now.
Record summary for CCCc1nc(C)c2c(=O)[nH]c(-c3cc(S(=O)(=O)N4CCC[C@H]4CN4CCCC4)ccc3OCC)nn12.Cl [Compound 11] : reported LC50 (50% lethal concentration) = > 100 µM
